Test system: CCRF-CEM
Assay: CCK-8 proliferation, CCRF-CEM
Assay type: cell-based, Human
Conditions: Homo sapiens, CCRF-CEM; CCK-8; 96 hours; read-out: Inhibitory activity (IC50) on tumor cell proliferation, CCRF-CEM
pIC50: −log10 of the molar value.
measurement-type: pIC50

// below: answered compounds
compound	pIC50
CNC(=O)c1ccccc1Nc1cc(Nc2ccc(N3CCOCC3)cc2OC)ncc1C(F)(F)F [PND-1186, reference compound]	5.30 to 6.00
Cc1nc2c(F)cc(-c3nc(Nc4ccc(N5CCC(N(C)Cc6cccc(N7CCC(=O)NC7=O)c6)CC5)cn4)ncc3F)cc2n1C(C)C	6.30 to 7.00
O=C1CC[C@H](N2Cc3cc(N4CCN(CC5CCN(c6ccc([C@@H]7c8ccc(O)cc8CC[C@@H]7c7ccccc7)cc6)CC5)CC4)ccc3C2=O)C(=O)N1 [ARV-471, reference compound]	< 5.00
Cc1nc2c(F)cc(-c3nc(Nc4ccc(CN5CCN(Cc6cccc(N7CCC(=O)NC7=O)c6)CC5)cn4)ncc3F)cc2n1C(C)C	6.30 to 7.00
CNC(=O)c1ccccc1Nc1cc(Nc2ccc(N3CCC(N(C)Cc4ccc(C5CCC(=O)NC5=O)cc4)CC3)cc2OC)ncc1C(F)(F)F (centres unmarked)	6.30 to 7.00

Query: Supply recorded pIC50 for CN(C)C(=O)c1cc2cnc(Nc3ccc(N4CCNCC4)cn3)nc2n1C1CCCC1 [Ribociclib, reference compound] here.
Result: < 5.00

Query: Supply recorded pIC50 for Cc1ccc(C(=O)Nc2ccc(CN3CCN(Cc4ccc(C5CCC(=O)NC5=O)c(F)c4)CC3)c(C(F)(F)F)c2)cc1C#Cc1cnc2cccnn12 (centres unmarked) here.
Result: 7.00 to 7.30

Query: Supply recorded pIC50 for O=C(NC1CCNCC1)c1[nH]ncc1NC(=O)c1c(Cl)cccc1Cl [AT7519, reference compound] here.
Result: 6.00 to 6.30
